Where do the numbers come from? From PubChem BioAssay.

- STUDY_TARGET: L-lactate dehydrogenase (Plasmodium falciparum (isolate CDC / Honduras)) (UniProt Q27743)
- Sequence (Q27743 whole entry, looked up): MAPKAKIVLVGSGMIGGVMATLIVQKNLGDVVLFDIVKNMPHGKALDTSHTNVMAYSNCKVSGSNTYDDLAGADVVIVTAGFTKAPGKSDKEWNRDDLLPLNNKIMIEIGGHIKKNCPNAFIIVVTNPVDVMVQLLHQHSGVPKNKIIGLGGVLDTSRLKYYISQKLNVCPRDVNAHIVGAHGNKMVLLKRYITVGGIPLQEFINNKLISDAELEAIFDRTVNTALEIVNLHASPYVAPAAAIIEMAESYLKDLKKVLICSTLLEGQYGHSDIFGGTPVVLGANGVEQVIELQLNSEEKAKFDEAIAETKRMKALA
- ASSAY_REMARKS: PfLDH activity inhibition – cell lysate, 3D7 strain, counter-screen for P. falciparum growth inhibition project (AID 2304);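 further: 0% = vehicle and 100% = reference inhibitor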
- PROTOCOL_CONDITIONS: P. falciparum 3D7 crude extract, LDH APAD/NBT absorbance; at 2 µM; stronger effect = higher value
REPORTED_PROPERTY: inhibition (%)
Entry rule: numbers only, all in %.

Param request: inhibition | system L-lactate dehydrogenase (Plasmodium falciparum (isolate CDC / Honduras)) (UniProt Q27743) | item N=C(N)c1cccc(-c2cc(-c3cccc(C(=N)N)c3)on2)c1
3

Param request: inhibition | system L-lactate dehydrogenase (Plasmodium falciparum (isolate CDC / Honduras)) (UniProt Q27743) | item Nc1ccc(Oc2ccc(Cc3cnc(N)nc3N)cc2)cc1
-3

Param request: inhibition | system L-lactate dehydrogenase (Plasmodium falciparum (isolate CDC / Honduras)) (UniProt Q27743) | item COCCC[C@H]1C(=O)O[C@H]2CCC[C@@H]21
-4

Param request: inhibition | system L-lactate dehydrogenase (Plasmodium falciparum (isolate CDC / Honduras)) (UniProt Q27743) | item CC1=C(C(=O)Nc2ccc(Cl)cc2)C(c2ccncc2)n2nc(C(F)(F)F)nc2N1 (configuration not stated)
-5

Param request: inhibition | system L-lactate dehydrogenase (Plasmodium falciparum (isolate CDC / Honduras)) (UniProt Q27743) | item COc1cccc(Nc2nc(NCCO)c3ccccc3n2)c1
-6

Param request: inhibition | system L-lactate dehydrogenase (Plasmodium falciparum (isolate CDC / Honduras)) (UniProt Q27743) | item CC(C)(C)c1nn(-c2ccc(Cl)cc2)c2[nH]c(=O)c(CNCc3cccs3)cc12
3

Param request: inhibition | system L-lactate dehydrogenase (Plasmodium falciparum (isolate CDC / Honduras)) (UniProt Q27743) | item CC(C)C[C@@H]1C(=O)N[C@H](C2Cc3ccccc3C2)C(=O)N1[C@@H](C(=O)O)c1ccc(F)cc1F
-1
